All values here come from ChEMBL document CHEMBL1144259.

experiment: Inhibitory activity against MCP-1 induced Calcium flux in […]; assay type: functional, cell-based; conditions: Homo sapiens, THP-1
The following compounds are listed with their measured IC50 values.
MEASURED_QUANTITY: IC50 (µM)

# COMPOUND, MEASURED_QUANTITY, CENSOR_SYMBOL, VALUE_MEASURED
data = [
    ("CCC(c1ccc(Cl)c(Cl)c1)n1c(CO)cnc1S (stereo unspecified)", "IC50", ">", 10),
    ("CCC(c1ccc(F)c(F)c1)n1c(C(=O)N2CCCC2)cnc1S (stereo unspecified)", "IC50", ">", 10),
    ("CCC(c1ccc(F)c(F)c1)n1c(C(N)=O)cnc1S (stereo unspecified)", "IC50", "=", 0.501),
    ("CCC(c1ccc(Cl)c(Cl)c1)n1c(S)nc(C(=O)OC)c1C#N (stereo unspecified)", "IC50", "=", 0.0398),
    ("CCC(c1ccccc1)n1c(C(=O)OC)cnc1S (stereo unspecified)", "IC50", ">", 10),
    ("CCC(c1ccc(Cl)c(Cl)c1)n1c(S)nc(C(=O)O)c1C(=O)OC (stereo unspecified)", "IC50", ">", 10),
    ("CCC(c1ccc(Br)c(Br)c1)n1c(C(=O)OC)cnc1S (stereo unspecified)", "IC50", "=", 0.251),
    ("CCCC(c1ccc(Cl)c(Cl)c1)n1c(C(=O)OC)cnc1S (stereo unspecified)", "IC50", "=", 0.158),
    ("CC[C@@H](c1ccc(Cl)c(Cl)c1)n1c(C(=O)OC)cnc1S", "IC50", "=", 0.126),
    ("CC[C@@H](c1ccc(F)c(F)c1)n1c(S)nc(C(=O)OC)c1C(=O)OC", "IC50", "=", 0.00794),
    ("CCC(c1ccc(Cl)cc1)n1c(C(=O)OC)cnc1S (stereo unspecified)", "IC50", ">", 10),
]
